PROTOCOL_NOTES: in vitro
ASSAY_CONTEXT: human, CC50, 50% cytotoxic concentration, iSLK.219 cells, 48 h, with Dox and NaB
Collected CC50 values appear next to each entry.

MOLECULE: CC(C)C(=O)c1c(O)cc(O)c2c1OC1(C)CCC(C(C)(C)O)OC1C2 (stereo not shown) [Compound 6a]
RELATION: =
CC50 (µM): 141

MOLECULE: Nc1ccn(C[C@@H](CO)OCP(=O)(O)O)c(=O)n1 [Cidofovir, reference compound]
RELATION: >
CC50 (µM): 1

MOLECULE: CC(C)=CCCC1(C)Oc2c(c(O)cc(O)c2C(=O)C(C)C)CC1O (single isomer, unassigned; (+)) [Compound 2a, (+)-japonicol F]
RELATION: =
CC50 (µM): 126

MOLECULE: CC(C)C(=O)c1c(O)cc(O)c(CC2C(C(C)(C)O)CCC2(C)O)c1O (stereo not shown) [Compound 8a]
RELATION: >
CC50 (µM): 300
